# Tested on: NOMO1
# assayName: cell viability relative to DMSO control; higher = less cytotoxic
# assayContext: HPLM + 10% dialyzed FBS; 48 h; 0.0211 µM
propertyName: cell viability
Param answer (str): number followed by unit.

So what's the measured cell viability for this one? COc1ccnc(C[S+]([O-])c2nc3cc(OC(F)F)ccc3[nH]2)c1OC (stereo not drawn)
131%

Next compound up: COc1cc(N[S+](=O)([O-])c2ccc(N)cc2)nc(OC)n1
116%

Now the same for CCN(CC)CCN1C(=O)\C(=N/C2=CC=CC=C12)CC3=CC=C(OC)C=C3
118%

Lookup COc1cc([C@@H]2c3cc4c(cc3[C@@H](O[C@@H]3O[C@@H]5CO[C@@H](c6cccs6)O[C@H]5[C@H](O)[C@H]3O)[C@H]3COC(=O)[C@H]23)OCO4)cc(OC)c1O
111%

Can you check COc1cc(OC)c(NC(=O)Nc2cc(C)on2)cc1Cl next?
106%

What would you report for COc1cc2ncnc(Nc3cccc(Br)c3)c2cc1OC ?
98.9%

Now the same for COC1=CC2=C(C=C1OC)[C@H]3[C@@H](CO2)OC4=C(C=CC5=C4\C=C/C(C)(C)O5)C3=O
96.8%

Also CNCC(O)C(O)C(O)C(O)CO.O=C(O)c1ccc(-c2cc3cccnc3c(-c3ccc4nonc4c3)n2)cc1 ?
111%

---

# Test system: P12-Ichikawa
# assayName: cell viability relative to DMSO control; higher = less cytotoxic
# assayContext: RPMI 5 mM glucose + 10% dialyzed FBS; 48 h; 0.19 µM
propertyName: cell viability (%)
Your answer should be a plain number; it is taken to be in %.

Quick one: cell viability for CN[S+](=O)([O-])CCc1ccc2[nH]cc(C3CCN(C)CC3)c2c1 ?
99

Also, CCNC(=O)[C@H]1O[C@@H](n2cnc3c(N)nc(NCCc4ccc(CCC(=O)O)cc4)nc32)[C@H](O)[C@@H]1O please.
97.2

// same read-out, input: Cc1cc(Cl)ccc1OCCCC(=O)NO
102

Same question for CC1(C)CC(O)CC(C)(C)N1[O] please.
129

How about this compound: O=C1NC(=O)/C(=C/c2cccc(C(F)(F)F)c2)S1
93.1

Okay, and CCCCCCCCCCCCCCCCCCOP(=O)([O-])OC1CC[N+](C)(C)CC1 ?
110

What about CC(C)NCC(O)COc1ccc(CCOCC2CC2)cc1 (centres undefined) ?
116

Quick one: O=C(CCc1ccc(O)cc1)c1c(O)cc(O)cc1O[C@@H]1O[C@H](CO)[C@@H](O)[C@H](O)[C@H]1O
85.1

Field entry: C[C@@H]1C[C@H]2[C@@H]3CC\C4=C\C(=O)\C=C/[C@]4(C)[C@@]3(Cl)[C@@H](O)C[C@]2(C)[C@@]1(OC(=O)C5=CC=CO5)C(=O)CCl
46.2

---

# Tested on: P12-Ichikawa
# assayName: cell viability relative to DMSO control; higher = less cytotoxic
# assayContext: RPMI 5 mM glucose + 10% dialyzed FBS; 48 h; 0.0211 µM
propertyName: cell viability (%)
Write the number in % without appending the unit.

Tell me the measured cell viability of Nc1nc(OCc2ccccc2)c2nc[nH]c2n1 , please.
117

CN[C@@H]1C[C@H]2O[C@@](C)([C@@H]1OC)n1c3ccccc3c3c4c(c5c6ccccc6n2c5c31)C(=O)N[C@H]4O ?
85.8

// next record CC(C)(C)NC(=O)[C@@H]1CN(Cc2cccnc2)CCN1C[C@@H](O)C[C@@H](Cc1ccccc1)C(=O)N[C@H]1c2ccccc2C[C@H]1O.O=S(=O)(O)O
123

Now consider COc1ccc(Nc2cc(-c3cnc(N)nc3)nc(N3CCOCC3)n2)cn1 .
98.7

// next record CC(C)(C)c1cc(C(=O)O)c(NC(=O)Nc2ccc3[nH]ncc3c2)s1
97.8

Subsequent entry: Cc1cc(Cl)ccc1OCCCC(=O)NO
111

Now the same for COc1cccc2c1C(=O)c1c(O)c3c(c(O)c1C2=O)C[C@@](O)(C(C)=O)C[C@@H]3O[C@H]1C[C@H](N)[C@H](O)[C@H](C)O1
106

Subsequent entry: O=c1[nH]cnc2c1ncn2[C@H]1CC[C@@H](CO)O1
90.1

How about this compound: CCN1C[C@]2(OC(=O)c3ccccc3NC(C)=O)CC[C@H](OC)[C@@]34[C@@H]2C[C@@H]([C@@H]13)[C@@]1(O)C[C@H](OC)[C@H]2C[C@@H]4[C@]1(O)[C@H]2OC
110

Also, CN(C)C[C@@H]1CC[N]2C=C(C3=C2C=CC=C3)C/4=C(/C(=O)NC4=O)C5=C[N](CCO1)C6=C5C=CC=C6 please.
109

Next: CCNC(=O)[C@H]1O[C@@H](n2cnc3c(N)nc(NCCc4ccc(CCC(=O)O)cc4)nc32)[C@H](O)[C@@H]1O
99.8

Would you kindly repeat that for COC1=CC=C(C=C1)C2CC(=N/N2C3=CC=C(C=C3)[S+](N)([O-])=O)\C4=CC=CC=C4 (centres undefined) ?
100

And COc1cc([C@@H]2c3cc4c(cc3[C@@H](O[C@@H]3O[C@@H]5CO[C@@H](c6cccs6)O[C@H]5[C@H](O)[C@H]3O)[C@H]3COC(=O)[C@H]23)OCO4)cc(OC)c1O ?
82.3

Next compound: CC[C@@]1(O)C[C@H](O[C@H]2C[C@H](N(C)C)[C@H](O[C@H]3C[C@H](O)[C@H](O[C@H]4CCC(=O)[C@H](C)O4)[C@H](C)O3)[C@H](C)O2)c2c(cc3c(c2O)C(=O)c2c(O)cccc2C3=O)[C@H]1C(=O)OC
93.5

And the next one, OCCCNc1cc(-c2ccnc(Nc3cccc(Cl)c3)n2)ccn1 ?
119

Param item: CC(C)C[C@H](NC(=O)[C@H](Cc1ccccc1)NC(=O)c1cnccn1)B(O)O
102

What about COc1cc(OC)c(NC(=O)Nc2cc(C)on2)cc1Cl ?
97.8

Query N\C1=N\C2=C(N=C[N]2COC(CO)CO)C(=O)N1 next
118

What about this compound? COc1cc(N[S+](=O)([O-])c2ccc(N)cc2)nc(OC)n1
106

Please give the result for NC(=O)Nc1cc(-c2ccc(CN3CCOCC3)cc2)sc1C(N)=O too.
115

Follow-up item: NC\1=N\C(=O)N(\C=C1)[C@H]\2[C@H](O)[C@H](O)C(=C2F)\CO
116

What do we get for C[N+](C)([O-])CCNc1ccc(NCC[N+](C)(C)[O-])c2c1C(=O)c1c(O)ccc(O)c1C2=O ?
96

Then what about the compound OC(COC1=C2C(=O)\C=C(/OC2=CC=C1)C([O-])=O)COC3=C4C(=O)\C=C(/OC4=CC=C3)C([O-])=O ?
82.1

Now the compound CCN(CC)CCN1C(=O)\C(=N/C2=CC=CC=C12)CC3=CC=C(OC)C=C3
107

---

# Test system: SEM cells
# assayName: cell viability relative to DMSO control; higher = less cytotoxic
# assayContext: RPMI 5 mM glucose + 10% dialyzed FBS; 48 h; 0.19 µM
propertyName: cell viability (%)
Field format: number, assumed %, no unit text.

Tell me reported cell viability for CC(C)C[C@H](NC(=O)[C@H](Cc1ccccc1)NC(=O)c1cnccn1)B(O)O , tested with SEM cells.
4.26

Then what about the compound C=CCn1c(=O)c2cnc(Nc3ccc(N4CCN(C)CC4)cc3)nc2n1-c1cccc(C(C)(C)O)n1 ?
64.6

Try the compound COc1cc(-c2nn(C3CCC(N4CCN(C(C)=O)CC4)CC3)c3ncnc(N)c23)ccc1NC(=O)c1cc2ccccc2n1C (centres undefined)
111

Do the same for CNCC(O)C(O)C(O)C(O)CO.O=C(O)c1ccc(-c2cc3cccnc3c(-c3ccc4nonc4c3)n2)cc1 please
101

---

Kindly state cell viability for each of the entries shown.
# System: SEM cells
# assayName: cell viability relative to DMSO control; higher = less cytotoxic
# assayContext: RPMI 5 mM glucose + 10% FBS; 48 h; 0.0632 µM
Mention the unit after the number when you answer.

Tell me the measured cell viability of CCN1C[C@]2(OC(=O)c3ccccc3NC(C)=O)CC[C@H](OC)[C@@]34[C@@H]2C[C@@H]([C@@H]13)[C@@]1(O)C[C@H](OC)[C@H]2C[C@@H]4[C@]1(O)[C@H]2OC , please.
106%

Then this molecule: C#C[C@]1(O)CC[C@H]2[C@@H]3CCc4cc(OC)ccc4[C@H]3CC[C@@]21C
126%

And for O=C1CCc2ccc(OCCCCN3CCN(c4cccc(Cl)c4Cl)CC3)cc2N1 ?
96.4%

Please do the same for C[S+]([O-])c1ccc(-c2nc(-c3ccc(F)cc3)c(-c3ccncc3)[nH]2)cc1 (stereo not drawn) as well.
107%

Now give it for CN(C)c1ccc(Nc2nc(N)n(C(=O)c3c(F)cccc3F)n2)cc1 too.
118%

Another molecule to look at: O=C1NC(=O)/C(=C/c2cccc(C(F)(F)F)c2)S1
112%

Also CC1COC2=C3N1\C=C(C(O)=O)/C(=O)C3=CC(=C2N4CCN(C)CC4)F (stereo not drawn) , if possible.
142%

CCOC(=O)[C@H](CCc1ccccc1)N[C@@H](C)C(=O)N1[C@H](C(=O)O)C[C@@H]2CCC[C@@H]21 ?
147%

Next molecule up: CC(C)(C)NC(=O)[C@H]1CC[C@H]2[C@@H]3CC[C@H]4NC(=O)\C=C/[C@]4(C)[C@H]3CC[C@]12C
97.3%

And CN(C)CCCNC(=O)c1ccc(-c2cc(O)c3ncccc3c2)cc1 ?
117%

// query: Clc1ccccc1CN1CCc2sccc2C1
133%

Ok, now COC[C@H]1OC(=O)C2=COC3=C2[C@@]1(C)\C4=C(\[C@@H]5CC[C@H](O)[C@@]5(C)C[C@H]4OC(C)=O)C3=O
77.7%

Field entry: Cc1ccc(-c2ncn(-c3ccc(Nc4nccc(-c5cccc(N6CCOCC6)c5)n4)cc3)n2)cn1
75.1%

Field entry: N[C@@H](CC(=O)N1CCn2c(nnc2C(F)(F)F)C1)Cc1cc(F)c(F)cc1F
132%

Entry O=C1NC(O)CCN1[C@@H]1O[C@H](CO)[C@@H](O)[C@H]1O (stereo partly drawn) please
114%

Also check O=C(NNC(=O)c1ccc(CN[S+](=O)([O-])c2ccc(F)c(Cl)c2)cc1)c1ccccc1
91.5%

What about this molecule? CC(C)(C)c1cc(C(=O)O)c(NC(=O)Nc2ccc3[nH]ncc3c2)s1
101%

What do you have for OCCCNc1cc(-c2ccnc(Nc3cccc(Cl)c3)n2)ccn1 ?
143%
